# System: Rv0081-S/Q-A S48A;S49A;S52A;Q53A (Mycobacterium tuberculosis)
# Sequence: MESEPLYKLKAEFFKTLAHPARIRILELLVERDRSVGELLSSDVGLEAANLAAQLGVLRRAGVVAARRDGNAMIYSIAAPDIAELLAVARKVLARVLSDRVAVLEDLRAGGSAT
# Protocol description: SPR

Input sequence: ATCCGCACTATCTGATAAATTCTTCAACTCGTC (double strand) [ds-Wt]
Kd: 19.6 µM
